Here, each record is paired with measured protein stability index data.
B1: PI4K2A (parent)
chain: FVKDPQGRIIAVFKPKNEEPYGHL

Variants of: B1
Assay: protein stability index of a GFP-peptide fusion (GPS, HEK-293T) (PSI 1-6); higher = more stable;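 also: lentivirally expressed fusions sorted by FACS into six bins by GFP to DsRed ratio, PSI derived from sequencing read proportions per bin multiplied by bin number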
Details: c terminus: a fixed tail appended

- mutation.code: "P20F"
  protein stability index: 1.94
- mutation.code: "D4H"
  protein stability index: 1.12
- mutation.code: "Y21N"
  protein stability index: 1.5
- mutation.code: "E18Q"
  protein stability index: 1.8
- mutation.code: "E18M"
  protein stability index: 2.08
- mutation.code: "K3Y"
  protein stability index: 2.01
- mutation.code: "G7T"
  protein stability index: 1.45
- mutation.code: "K16M"
  protein stability index: 1.98
- mutation.code: "E18C"
  protein stability index: 2.02
- mutation.code: "K14Y"
  protein stability index: 2.23
- mutation.code: "F13A"
  protein stability index: 1.55
- mutation.code: "H23C"
  protein stability index: 1.94
- mutation.code: "A11M"
  protein stability index: 2.01
- mutation.code: "E18T"
  protein stability index: 1.35
- mutation.code: "Y21L"
  protein stability index: 2.85
- mutation.code: "V12I"
  protein stability index: 1.85
- mutation.code: "P15H"
  protein stability index: 1.58
- mutation.code: "F13M"
  protein stability index: 1.28
- mutation.code: "V12Q"
  protein stability index: 2.5
- mutation.code: "G7N"
  protein stability index: 2.23
- mutation.code: "V2W"
  protein stability index: 1.71
- mutation.code: "H23G"
  protein stability index: 2.6
- mutation.code: "I10P"
  protein stability index: 2.56
- mutation.code: "F13K"
  protein stability index: 1.58
- mutation.code: "E18P"
  protein stability index: 1.79
- mutation.code: "Q6P"
  protein stability index: 2.21
- mutation.code: "N17Q"
  protein stability index: 1.97
- mutation.code: "A11H"
  protein stability index: 1.41
- mutation.code: "V12P"
  protein stability index: 2.46
- mutation.code: "P5K"
  protein stability index: 2.07
- mutation.code: "A11R"
  protein stability index: 3.16
- mutation.code: "V12T"
  protein stability index: 2.54
- mutation.code: "I9W"
  protein stability index: 2.5
- mutation.code: "G22W"
  protein stability index: 1.72
- mutation.code: "P15L"
  protein stability index: 2.26
- mutation.code: "P15V"
  protein stability index: 1.92
- mutation.code: "A11V"
  protein stability index: 1.63
- mutation.code: "A11D"
  protein stability index: 2.94
- mutation.code: "R8Q"
  protein stability index: 1.92
- mutation.code: "K14F"
  protein stability index: 2.67
- mutation.code: "A11E"
  protein stability index: 2.07
- mutation.code: "V2I"
  protein stability index: 2.01
- mutation.code: "P5C"
  protein stability index: 1.66
- mutation.code: "G22F"
  protein stability index: 1.81
- mutation.code: "F1W"
  protein stability index: 1.89
- mutation.code: "Y21S"
  protein stability index: 1.72
- mutation.code: "H23W"
  protein stability index: 1.83
- mutation.code: "H23S"
  protein stability index: 1.36
- mutation.code: "V2C"
  protein stability index: 1.33
- mutation.code: "N17K"
  protein stability index: 1.73
- mutation.code: "L24K"
  protein stability index: 2.04
- mutation.code: "K14H"
  protein stability index: 2.03
- mutation.code: "N17G"
  protein stability index: 1.48
- mutation.code: "K3Q"
  protein stability index: 1.32
- mutation.code: "L24T"
  protein stability index: 2.22
- mutation.code: "I10S"
  protein stability index: 1.97
- mutation.code: "I10T"
  protein stability index: 2.09
- mutation.code: "P15T"
  protein stability index: 1.27
- mutation.code: "P20V"
  protein stability index: 1.16
- mutation.code: "I10R"
  protein stability index: 2.85
- mutation.code: "P5H"
  protein stability index: 2.51
- mutation.code: "V12S"
  protein stability index: 2.72
- mutation.code: "G7E"
  protein stability index: 2.98
- mutation.code: "F13I"
  protein stability index: 2.5
- mutation.code: "F13G"
  protein stability index: 1.39
- mutation.code: "G22A"
  protein stability index: 1.66
- mutation.code: "N17H"
  protein stability index: 2.38
- mutation.code: "V12Y"
  protein stability index: 1.93
- mutation.code: "I9Q"
  protein stability index: 1.67
- mutation.code: "Y21G"
  protein stability index: 1.65
- mutation.code: "P15C"
  protein stability index: 1.66
- mutation.code: "Q6C"
  protein stability index: 1.54

All values here come from the supplement of paper PMC10567573.
